Experiment Summary: Rat dose proportionality study (oral)
Condition Context: male, Sprague-Dawley, plasma, 10 mg/kg
Property: Tmax (h)
Entry rule: numbers only, all in h.

Q) Form field: reported Tmax of COc1cccc2c1nc(C(F)F)n2-c1nc(N2CCOCC2)nc(N2CCN(S(=O)(=O)CCN(C)C)CC2)n1
A) 4

###

For each entry below, report its remaining activity at 1 µM value.
Target Or Test System: panel of 442 kinases (Homo sapiens, UniProt Q13043)
Construct: purchased Ambit Biosciences (scanMAXX KINOMEscan)
Sequence (Q13043 whole entry): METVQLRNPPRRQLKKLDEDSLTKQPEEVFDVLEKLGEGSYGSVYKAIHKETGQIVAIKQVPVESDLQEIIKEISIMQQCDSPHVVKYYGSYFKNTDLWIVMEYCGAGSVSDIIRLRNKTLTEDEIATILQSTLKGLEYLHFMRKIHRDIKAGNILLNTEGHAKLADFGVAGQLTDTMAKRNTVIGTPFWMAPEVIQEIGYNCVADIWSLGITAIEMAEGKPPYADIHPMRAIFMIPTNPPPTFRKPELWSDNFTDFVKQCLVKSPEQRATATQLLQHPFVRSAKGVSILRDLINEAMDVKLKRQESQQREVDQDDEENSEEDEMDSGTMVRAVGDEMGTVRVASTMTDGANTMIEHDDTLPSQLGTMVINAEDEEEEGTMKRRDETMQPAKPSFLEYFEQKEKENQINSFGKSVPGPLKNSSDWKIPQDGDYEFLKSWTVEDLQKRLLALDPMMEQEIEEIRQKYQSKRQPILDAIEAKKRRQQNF
Experiment Summary: biochemical
Assay type: binding
Condition Context: kinase MST1; 1 µM; read-out: % of control at 1 µM
Reply with just the number (in %).

Q) State the recorded remaining activity at 1 µM for this entry: Cn1c(=O)n(-c2ccc(C(C)(C)C#N)cc2)c2c3cc(-c4cnc5ccccc5c4)ccc3ncc21
A) 66

Q) State the recorded remaining activity at 1 µM for this entry: COc1ncc(-c2ccc3nccc(-c4ccnnc4)c3c2)cc1NS(=O)(=O)c1ccc(F)cc1F
A) 100

Q) # input compound: FC(F)c1nc2ccccc2n1-c1nc(N2CCOCC2)nc(N2CCOCC2)n1 ; wanted: its remaining activity at 1 µM
A) 53

Q) Given Nc1cc(C(F)(F)F)c(-c2cc(N3CCOCC3)nc(N3CCOCC3)n2)cn1 , state its recorded remaining activity at 1 µM.
A) 95

###

Target Or Test System: panel of 442 kinases (Homo sapiens)
Construct: purchased Ambit Biosciences (scanMAXX KINOMEscan)
Experiment Summary: biochemical
Format: binding
Condition Context: FES; 1 µM; read-out: % of control at 1 µM
What remaining activity at 1 µM was measured for each of the following?
Numbers only; they are read as %.

Q) Write down the reported remaining activity at 1 µM of Nc1cc(C(F)(F)F)c(-c2cc(N3CCOCC3)nc(N3CCOCC3)n2)cn1 [Buparlisib] , test system: panel of 442 kinases (Homo sapiens).
A) 100

Q) API: value(readout= remaining activity at 1 µM, system= panel of 442 kinases (Homo sapiens), query= Cn1c(=O)n(-c2ccc(C(C)(C)C#N)cc2)c2c3cc(-c4cnc5ccccc5c4)ccc3ncc21 [Dactolisib] )
A) 92

Q) # query: remaining activity at 1 µM | item COc1ncc(-c2ccc3nccc(-c4ccnnc4)c3c2)cc1NS(=O)(=O)c1ccc(F)cc1F [Omipalisib] | system: panel of 442 kinases (Homo sapiens)
A) 100

Q) Report remaining activity at 1 µM for FC(F)c1nc2ccccc2n1-c1nc(N2CCOCC2)nc(N2CCOCC2)n1 [ZSTK474] tested on panel of 442 kinases (Homo sapiens).
A) 100

###

Target Or Test System: panel of 442 kinases (Homo sapiens)
Construct: purchased Ambit Biosciences (scanMAXX KINOMEscan)
Sequence (P33981 1-857): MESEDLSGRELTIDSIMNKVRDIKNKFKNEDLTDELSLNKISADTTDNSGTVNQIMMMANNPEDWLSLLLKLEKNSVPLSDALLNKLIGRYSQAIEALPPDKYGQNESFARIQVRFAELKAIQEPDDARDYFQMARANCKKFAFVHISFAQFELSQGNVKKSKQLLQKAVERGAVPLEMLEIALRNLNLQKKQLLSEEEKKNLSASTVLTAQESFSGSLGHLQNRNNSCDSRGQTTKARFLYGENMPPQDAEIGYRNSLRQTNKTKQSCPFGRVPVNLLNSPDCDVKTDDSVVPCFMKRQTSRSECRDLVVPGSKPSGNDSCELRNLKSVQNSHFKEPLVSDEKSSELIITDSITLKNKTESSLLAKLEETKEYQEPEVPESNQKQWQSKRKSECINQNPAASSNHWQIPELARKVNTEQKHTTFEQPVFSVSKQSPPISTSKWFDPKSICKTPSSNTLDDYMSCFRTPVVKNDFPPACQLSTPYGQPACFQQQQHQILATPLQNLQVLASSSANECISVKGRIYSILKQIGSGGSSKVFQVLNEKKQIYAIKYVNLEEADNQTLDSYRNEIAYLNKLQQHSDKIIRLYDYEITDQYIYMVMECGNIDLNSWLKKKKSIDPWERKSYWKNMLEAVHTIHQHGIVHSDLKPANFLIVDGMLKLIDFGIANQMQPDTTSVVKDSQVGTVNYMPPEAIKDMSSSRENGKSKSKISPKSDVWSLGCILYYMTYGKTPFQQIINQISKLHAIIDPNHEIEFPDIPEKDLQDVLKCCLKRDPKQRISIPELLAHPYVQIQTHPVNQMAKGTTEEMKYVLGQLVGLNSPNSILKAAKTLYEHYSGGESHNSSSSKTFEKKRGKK
Experiment Summary: biochemical
Assay type: binding
Condition Context: kinase TTK; 1 µM; read-out: TTK (% of control at 1 µM)
Property: remaining activity at 1 µM (%)
Write it as a number; the unit % goes unstated.

Q) Requested read-out: remaining activity at 1 µM. Entry: Cn1c(=O)n(-c2ccc(C(C)(C)C#N)cc2)c2c3cc(-c4cnc5ccccc5c4)ccc3ncc21
A) 49

Q) Item Nc1cc(C(F)(F)F)c(-c2cc(N3CCOCC3)nc(N3CCOCC3)n2)cn1 has what recorded remaining activity at 1 µM?
A) 100

Q) Item under review: FC(F)c1nc2ccccc2n1-c1nc(N2CCOCC2)nc(N2CCOCC2)n1 . Reported remaining activity at 1 µM?
A) 100

Q) Which remaining activity at 1 µM reading was recorded for the compound COc1ncc(-c2ccc3nccc(-c4ccnnc4)c3c2)cc1NS(=O)(=O)c1ccc(F)cc1F ?
A) 76
